- Target Of Assay: EGFR (Homo sapiens)
- Sequence (P00533 25-1210): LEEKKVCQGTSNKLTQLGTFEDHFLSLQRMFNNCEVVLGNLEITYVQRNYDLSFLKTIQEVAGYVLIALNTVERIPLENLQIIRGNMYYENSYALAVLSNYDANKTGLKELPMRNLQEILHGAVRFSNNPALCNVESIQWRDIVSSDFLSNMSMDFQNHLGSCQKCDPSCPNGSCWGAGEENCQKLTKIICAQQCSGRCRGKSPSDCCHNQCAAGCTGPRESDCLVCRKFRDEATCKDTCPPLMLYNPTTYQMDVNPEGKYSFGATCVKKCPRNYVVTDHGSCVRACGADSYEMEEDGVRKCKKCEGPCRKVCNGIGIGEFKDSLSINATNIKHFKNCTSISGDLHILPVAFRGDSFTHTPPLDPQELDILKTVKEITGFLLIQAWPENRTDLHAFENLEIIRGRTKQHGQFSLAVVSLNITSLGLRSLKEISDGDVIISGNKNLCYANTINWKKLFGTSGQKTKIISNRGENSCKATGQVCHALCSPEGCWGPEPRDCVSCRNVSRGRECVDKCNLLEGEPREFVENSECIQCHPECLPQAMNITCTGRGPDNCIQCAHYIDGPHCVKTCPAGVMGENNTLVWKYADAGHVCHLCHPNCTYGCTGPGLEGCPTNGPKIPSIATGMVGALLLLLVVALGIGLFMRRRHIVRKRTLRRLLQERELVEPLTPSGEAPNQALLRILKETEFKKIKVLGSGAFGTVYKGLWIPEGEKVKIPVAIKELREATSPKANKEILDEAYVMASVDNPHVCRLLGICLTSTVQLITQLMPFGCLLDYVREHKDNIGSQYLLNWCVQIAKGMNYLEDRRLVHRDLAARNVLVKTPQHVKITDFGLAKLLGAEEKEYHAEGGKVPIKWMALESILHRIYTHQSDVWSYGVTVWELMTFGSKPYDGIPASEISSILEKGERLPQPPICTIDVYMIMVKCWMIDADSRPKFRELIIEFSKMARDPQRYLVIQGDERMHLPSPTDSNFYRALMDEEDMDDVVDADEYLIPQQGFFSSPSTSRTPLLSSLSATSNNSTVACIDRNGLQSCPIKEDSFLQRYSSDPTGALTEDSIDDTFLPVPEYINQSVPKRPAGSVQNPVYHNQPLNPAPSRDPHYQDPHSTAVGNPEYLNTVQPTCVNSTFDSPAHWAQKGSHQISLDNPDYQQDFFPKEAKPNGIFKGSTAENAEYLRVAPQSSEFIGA
- Test Summary: EGFR Western blot in HCT116
- Type: cell-based
- Settings: Western blot at MTT-IC50
Quantity: EGFR HCT116 % Inhibition (%)
Give bare numbers, in %.

Look over these answered cases.
CC(=O)Oc1ccc(Cl)cc1C(=O)N1C/C(=C\c2ccccc2)C(=O)/C(=C/c2ccccc2)C1 : 68.5
COc1ccc(/C=C2\CN(C(=O)c3ccccc3OC(C)=O)C/C(=C\c3ccc(OC)cc3)C2=O)cc1 : 62.5
COc1ccc(/C=C2\CN(C(=O)c3cc(Cl)ccc3OC(C)=O)C/C(=C\c3ccc(OC)c(OC)c3)C2=O)cc1OC : 60.1

Quick one: give me EGFR HCT116 % Inhibition for each item below, same order please.
1. COc1ccc(/C=C2\CN(C(=O)c3cc(Cl)ccc3OC(C)=O)C/C(=C\c3ccc(OC)cc3)C2=O)cc1
2. COc1ccc(/C=C2\CN(C(=O)c3ccccc3OC(C)=O)C/C(=C\c3ccc(OC)c(OC)c3)C2=O)cc1OC
3. CC(=O)Oc1ccc(Cl)cc1C(=O)N1C/C(=C\c2cccs2)C(=O)/C(=C/c2cccs2)C1

(A)
[68.5, 61.5, 56.3]

Every entry's value here was drawn from paper PMC8566089.
